Ref: paper PMC5513037

- measurement target: SLK (Homo sapiens)
- Construct: endogenous in cells; host or cells: K562
- Sequence (Q9H2G2 whole entry): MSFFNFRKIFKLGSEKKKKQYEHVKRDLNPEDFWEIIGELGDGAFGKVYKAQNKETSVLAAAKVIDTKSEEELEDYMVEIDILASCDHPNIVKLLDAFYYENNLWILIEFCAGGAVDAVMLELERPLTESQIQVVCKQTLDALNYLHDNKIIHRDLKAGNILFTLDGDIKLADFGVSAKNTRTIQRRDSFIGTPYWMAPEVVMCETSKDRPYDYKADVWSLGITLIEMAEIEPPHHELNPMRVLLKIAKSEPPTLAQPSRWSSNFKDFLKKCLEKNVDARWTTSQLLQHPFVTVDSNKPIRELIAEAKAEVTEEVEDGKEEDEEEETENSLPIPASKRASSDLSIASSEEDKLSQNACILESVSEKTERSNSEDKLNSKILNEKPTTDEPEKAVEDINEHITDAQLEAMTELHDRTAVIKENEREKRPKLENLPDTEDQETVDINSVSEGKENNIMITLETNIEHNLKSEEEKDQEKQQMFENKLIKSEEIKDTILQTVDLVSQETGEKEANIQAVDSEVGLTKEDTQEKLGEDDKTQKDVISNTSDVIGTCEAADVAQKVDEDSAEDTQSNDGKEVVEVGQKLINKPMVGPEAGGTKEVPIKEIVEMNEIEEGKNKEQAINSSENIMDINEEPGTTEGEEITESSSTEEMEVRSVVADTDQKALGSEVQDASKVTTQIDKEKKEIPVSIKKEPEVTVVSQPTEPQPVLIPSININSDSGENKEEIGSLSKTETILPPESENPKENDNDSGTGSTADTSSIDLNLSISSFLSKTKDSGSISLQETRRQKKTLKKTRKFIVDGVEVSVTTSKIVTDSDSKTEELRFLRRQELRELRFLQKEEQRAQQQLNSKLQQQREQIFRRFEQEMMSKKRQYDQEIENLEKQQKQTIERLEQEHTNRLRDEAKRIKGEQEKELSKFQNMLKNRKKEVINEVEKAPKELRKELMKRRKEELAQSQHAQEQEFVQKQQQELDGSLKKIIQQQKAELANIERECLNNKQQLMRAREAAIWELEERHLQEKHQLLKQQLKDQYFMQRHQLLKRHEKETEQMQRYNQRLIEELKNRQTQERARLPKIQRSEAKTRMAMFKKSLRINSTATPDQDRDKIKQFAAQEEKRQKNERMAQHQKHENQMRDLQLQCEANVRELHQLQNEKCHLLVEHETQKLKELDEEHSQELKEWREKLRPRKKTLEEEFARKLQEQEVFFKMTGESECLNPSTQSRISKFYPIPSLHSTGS
- assay info: KAM-matrix competition in K562 lysate
- Assay type: binding
- reported conditions: read-out: RB50 (the source's name)
property measured: pIC50
# log scale: pIC50 equals minus log10 of the concentration in mol/L

Ask: Return reported pIC50; argument: N#CCc1ccc(Nc2nc(NCCCN)cc(Nc3cc(C4CC4)[nH]n3)n2)cc1 [KAM]
Reply: 6.86

----------
- measurement target: NRK (Homo sapiens, UniProt Q7Z2Y5)
- Construct: endogenous in cells
- Sequence (Q7Z2Y5 whole entry): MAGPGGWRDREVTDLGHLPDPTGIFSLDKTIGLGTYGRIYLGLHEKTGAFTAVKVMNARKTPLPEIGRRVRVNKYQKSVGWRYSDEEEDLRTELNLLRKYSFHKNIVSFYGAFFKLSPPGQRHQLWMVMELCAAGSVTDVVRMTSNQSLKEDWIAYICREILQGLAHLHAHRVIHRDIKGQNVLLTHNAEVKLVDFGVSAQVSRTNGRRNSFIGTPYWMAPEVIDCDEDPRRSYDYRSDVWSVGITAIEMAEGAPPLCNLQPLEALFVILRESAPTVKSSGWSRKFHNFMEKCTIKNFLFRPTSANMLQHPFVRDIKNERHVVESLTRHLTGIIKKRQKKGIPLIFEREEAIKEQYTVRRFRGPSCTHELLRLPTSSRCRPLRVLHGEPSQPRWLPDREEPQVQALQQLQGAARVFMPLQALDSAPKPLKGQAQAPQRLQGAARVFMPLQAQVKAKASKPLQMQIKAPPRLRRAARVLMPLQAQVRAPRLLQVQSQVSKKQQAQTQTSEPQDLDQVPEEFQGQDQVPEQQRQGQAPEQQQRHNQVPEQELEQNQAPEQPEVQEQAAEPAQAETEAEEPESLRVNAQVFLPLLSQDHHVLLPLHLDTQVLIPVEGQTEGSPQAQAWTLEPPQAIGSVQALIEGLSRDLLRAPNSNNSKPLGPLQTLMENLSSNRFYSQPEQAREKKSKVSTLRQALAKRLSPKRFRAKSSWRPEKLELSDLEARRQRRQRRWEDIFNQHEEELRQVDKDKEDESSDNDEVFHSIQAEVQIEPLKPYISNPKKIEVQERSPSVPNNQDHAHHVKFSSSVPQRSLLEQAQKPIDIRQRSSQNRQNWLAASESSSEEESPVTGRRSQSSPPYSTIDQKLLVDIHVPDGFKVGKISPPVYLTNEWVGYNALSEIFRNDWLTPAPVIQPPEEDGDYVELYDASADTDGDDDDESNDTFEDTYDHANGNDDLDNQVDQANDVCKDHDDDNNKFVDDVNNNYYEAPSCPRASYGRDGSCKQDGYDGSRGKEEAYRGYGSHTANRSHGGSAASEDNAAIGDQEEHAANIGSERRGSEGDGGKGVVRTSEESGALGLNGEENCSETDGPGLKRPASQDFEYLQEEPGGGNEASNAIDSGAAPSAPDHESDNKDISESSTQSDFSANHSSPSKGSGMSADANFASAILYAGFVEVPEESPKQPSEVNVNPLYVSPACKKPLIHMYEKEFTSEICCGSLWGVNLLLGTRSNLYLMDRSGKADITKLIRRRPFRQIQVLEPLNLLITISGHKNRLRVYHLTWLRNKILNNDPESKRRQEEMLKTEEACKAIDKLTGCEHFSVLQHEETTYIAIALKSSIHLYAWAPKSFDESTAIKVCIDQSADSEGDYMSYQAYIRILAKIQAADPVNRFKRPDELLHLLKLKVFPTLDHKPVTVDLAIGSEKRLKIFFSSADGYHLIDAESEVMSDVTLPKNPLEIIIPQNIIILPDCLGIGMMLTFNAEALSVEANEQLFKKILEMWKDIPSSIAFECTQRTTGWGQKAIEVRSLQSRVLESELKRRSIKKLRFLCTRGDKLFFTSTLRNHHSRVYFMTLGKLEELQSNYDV
- assay info: Imatinib-matrix competition in K562 lysate
- reported conditions: read-out: RB50 (the source's name)
pIC50: −log10 of the molar value.
property measured: pIC50

Ask: Entry Cc1ccc(NC(=O)c2ccc(CN3CCN(C)CC3)cc2)cc1Nc1nccc(-c2cccnc2)n1 [Imatinib] : reported pIC50 = ?
Reply: < 5.00

----------
- measurement target: GSK3A (Homo sapiens)
- Construct: endogenous in cells
- Sequence (P49840 whole entry): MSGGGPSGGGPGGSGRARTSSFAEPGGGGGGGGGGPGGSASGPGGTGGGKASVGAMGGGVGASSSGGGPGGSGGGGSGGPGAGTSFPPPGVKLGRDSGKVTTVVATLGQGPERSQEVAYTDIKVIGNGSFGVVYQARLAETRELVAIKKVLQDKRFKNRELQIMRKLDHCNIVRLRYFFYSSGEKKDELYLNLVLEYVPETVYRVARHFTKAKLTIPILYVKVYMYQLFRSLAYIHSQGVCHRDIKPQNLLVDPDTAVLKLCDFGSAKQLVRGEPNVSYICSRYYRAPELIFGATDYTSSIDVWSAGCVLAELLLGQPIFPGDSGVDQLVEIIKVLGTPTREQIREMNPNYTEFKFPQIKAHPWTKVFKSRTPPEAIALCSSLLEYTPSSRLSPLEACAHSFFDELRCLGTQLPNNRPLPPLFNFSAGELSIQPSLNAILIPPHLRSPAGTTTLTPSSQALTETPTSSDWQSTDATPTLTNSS
- assay info: KAM-matrix competition in K562 lysate
- reported conditions: GSK3A; KAM-based affinity matrix, K562 lysates; read-out: RB50 (the source's name)
property measured: IC50 (nM)
Use nM as the unit, but write only the number.

Ask: Form field: reported IC50 of N#CCc1ccc(Nc2nc(NCCCN)cc(Nc3cc(C4CC4)[nH]n3)n2)cc1
Reply: 37

----------
- measurement target: PRKACG (Homo sapiens)
- Construct: endogenous in cells
- Sequence (P22612 whole entry): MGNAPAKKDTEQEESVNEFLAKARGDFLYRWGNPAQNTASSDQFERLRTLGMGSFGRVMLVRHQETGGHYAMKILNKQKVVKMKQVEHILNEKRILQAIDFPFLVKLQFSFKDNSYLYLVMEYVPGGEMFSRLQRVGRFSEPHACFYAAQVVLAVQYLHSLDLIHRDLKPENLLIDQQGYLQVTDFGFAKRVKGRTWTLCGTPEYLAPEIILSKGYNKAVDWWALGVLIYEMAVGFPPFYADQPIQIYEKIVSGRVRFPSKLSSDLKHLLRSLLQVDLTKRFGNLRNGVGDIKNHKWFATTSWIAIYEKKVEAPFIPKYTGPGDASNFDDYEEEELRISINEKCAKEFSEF
- assay info: KAM-matrix competition in K562 lysate
- reported conditions: KAM 0.001-10 uM, read-out: RB50 (the source's name)
pIC50: −log10 of the molar value.
property measured: pIC50

Ask: Field request: pIC50 | item: N#CCc1ccc(Nc2nc(NCCCN)cc(Nc3cc(C4CC4)[nH]n3)n2)cc1
Reply: < 5.00

----------
- measurement target: KSR1 (Homo sapiens)
- Construct: endogenous in cells
- Sequence (Q8IVT5 whole entry): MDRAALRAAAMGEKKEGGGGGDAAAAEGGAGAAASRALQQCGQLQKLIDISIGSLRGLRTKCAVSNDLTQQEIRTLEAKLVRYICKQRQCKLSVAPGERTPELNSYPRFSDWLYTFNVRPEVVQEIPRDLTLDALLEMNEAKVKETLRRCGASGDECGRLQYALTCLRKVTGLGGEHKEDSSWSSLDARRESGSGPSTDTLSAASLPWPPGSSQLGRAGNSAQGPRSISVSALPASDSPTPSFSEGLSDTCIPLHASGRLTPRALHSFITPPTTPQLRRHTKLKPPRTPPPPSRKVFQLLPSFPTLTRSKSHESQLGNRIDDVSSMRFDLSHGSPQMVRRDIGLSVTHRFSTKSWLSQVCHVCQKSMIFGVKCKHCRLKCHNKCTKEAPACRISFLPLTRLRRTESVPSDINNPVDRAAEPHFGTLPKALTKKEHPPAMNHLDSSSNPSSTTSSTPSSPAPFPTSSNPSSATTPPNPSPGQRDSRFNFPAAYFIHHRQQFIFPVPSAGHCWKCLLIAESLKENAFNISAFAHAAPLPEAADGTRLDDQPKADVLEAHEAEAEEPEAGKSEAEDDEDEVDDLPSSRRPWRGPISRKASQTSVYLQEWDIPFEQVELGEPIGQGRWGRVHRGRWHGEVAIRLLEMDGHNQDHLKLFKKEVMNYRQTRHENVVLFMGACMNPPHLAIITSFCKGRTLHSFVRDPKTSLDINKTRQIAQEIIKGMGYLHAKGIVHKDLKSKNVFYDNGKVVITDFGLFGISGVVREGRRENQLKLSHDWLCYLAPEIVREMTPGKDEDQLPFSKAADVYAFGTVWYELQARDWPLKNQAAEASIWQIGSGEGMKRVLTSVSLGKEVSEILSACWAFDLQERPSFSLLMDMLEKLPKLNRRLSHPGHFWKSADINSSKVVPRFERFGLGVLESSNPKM
- assay info: KAM-matrix competition in K562 lysate
- reported conditions: KAM 0.001-10 uM, read-out: RB50 (the source's name)
property measured: IC50

Ask: What value of IC50 on KSR1 (Homo sapiens) does N#CCc1ccc(Nc2nc(NCCCN)cc(Nc3cc(C4CC4)[nH]n3)n2)cc1 [KAM] have?
Reply: > 10 µM

----------
- measurement target: TRRAP (Homo sapiens, UniProt Q9Y4A5)
- Construct: endogenous in cells; host or cells: K562
- assay info: Imatinib-matrix competition in K562 lysate
- Type: binding
- reported conditions: read-out: RB50 (the source's name)
pIC50: −log10 of the molar value.
property measured: pIC50

Ask: pIC50 lookup needed for Cc1ccc(NC(=O)c2ccc(CN3CCN(C)CC3)cc2)cc1Nc1nccc(-c2cccnc2)n1 [Imatinib] , thanks.
Reply: < 5.00

----------
- measurement target: NEK2 (Homo sapiens, UniProt P51955)
- Construct: endogenous in cells
- Sequence (P51955 whole entry): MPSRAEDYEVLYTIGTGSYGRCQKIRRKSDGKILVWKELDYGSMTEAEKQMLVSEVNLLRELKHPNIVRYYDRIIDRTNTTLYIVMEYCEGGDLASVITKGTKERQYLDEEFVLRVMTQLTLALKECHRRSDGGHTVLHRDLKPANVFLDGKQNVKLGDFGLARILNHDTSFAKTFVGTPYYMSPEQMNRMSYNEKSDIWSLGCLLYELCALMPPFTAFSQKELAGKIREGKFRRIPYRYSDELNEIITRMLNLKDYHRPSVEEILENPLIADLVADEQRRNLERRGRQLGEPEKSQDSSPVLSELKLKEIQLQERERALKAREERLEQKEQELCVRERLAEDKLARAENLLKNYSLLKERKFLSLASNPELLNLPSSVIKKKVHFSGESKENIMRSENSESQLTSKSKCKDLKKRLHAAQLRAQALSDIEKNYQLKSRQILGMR
- assay info: KAM-matrix competition in K562 lysate
- reported conditions: KAM 0.001-10 uM, read-out: RB50 (the source's name)
property measured: pIC50
// pIC50 is dimensionless: -log10 of concentration (M)

Ask: Please tell me: pIC50 of N#CCc1ccc(Nc2nc(NCCCN)cc(Nc3cc(C4CC4)[nH]n3)n2)cc1 [KAM] , system NEK2 (Homo sapiens, UniProt P51955)?
Reply: 5.23
